Molecular target: fVL, fluorescently labelled H14 foldamer VL
Assay: fluorescence polarisation; direct FP: S100 protein diluted in 50 nM labeled foldamer, 20 mM HEPES pH 7.5, 150 mM NaCl, 1 mM CaCl2, 0.5 mM TCEP, 0.01% Tween20; quadratic fit (ProFit); detection threshold Kd 1 mM
pKd: −log10 of the molar value.
The reader will find reported pKd values listed item by item below.

Binder	pKd
S100Z (natural protein) MPTQLEMAMDTMIRIFHRYSGKERKRFKLSKGELKLLLQRELTEFLSCQKETQLVDKIVQDLDANKDNEVDFNEFVVMVAALTVACNDYFVEQLKKKGK	< 3.00
S100A9 (natural protein) MTCKMSQLERNIETIINTFHQYSVKLGHPDTLNQGEFKELVRKDLQNFLKKENKNEKVIEHIMEDLDTNADKQLSFEEFIMLMARLTWASHEKMHEGDEGPGHHHKPGLGEGTP	< 3.00
S100A5 (natural protein) METPLEKALTTMVTTFHKYSGREGSKLTLSRKELKELIKKELCLGEMKESSIDDLMKSLDKNSDQEIDFKEYSVFLTMLCMAYNDFFLEDNK	3.96
S100P (natural protein) MTELETAMGMIIDVFSRYSGSEGSTQTLTKGELKVLMEKELPGFLQSGKDKDAVDKLLKDLDANGDAQVDFSEFIVFVAAITSACHKYFEKAGLK	< 3.00
